Tested on: L929 mouse fibroblast
Assay: Cytotoxicity viability assay (CYT vt)
Format: cell-based
Details: Mus musculus, L929
property.measured: IC50 (nM)
Please reply with the bare figure in nM and do not write the unit itself.

Which IC50 value is on record for CCCCCCCC(=O)SCC/C=C/[C@@H]1CC(=O)NCc2nc(cs2)C2=N[C@@](C)(CS2)C(=O)N[C@@H](C(C)C)C(=O)O1 [SD-L-148, Largazole, reference compound] ?
101

* * *

Test system: L929 mouse fibroblast
Assay: Cytotoxicity viability assay (CYT vt)
Format: cell-based
Conditions: host-cell line; read-out: activity in the host-cell line
property.measured: IC50

Which IC50 value is on record for Cn1cc(/C=C/C(=O)c2cccc(NC(=O)OC(C)(C)C)c2)cc1C(=O)NO ?
> 10 µM

Source listed as patent US10154997B2.
